- System: TNFα
- MEASUREMENT_DESCRIPTION: cells
- Type: cell-based, human
- CONDITION_INFO: Homo sapiens, Monocyte, LPS-stimulated human monocytes, TNFα content; read-out: EC50 TNF
pEC50: −log10 of the molar value.

[
  {
    "MOLECULE": "CC(C)(O)[C@H](F)CNC(=O)c1cnc(-c2ccc3cc(C#N)cnn23)cc1Nc1ccc(Cl)cn1",
    "pEC50": 6.93
  },
  {
    "MOLECULE": "CC(C)Nc1cc(-c2ccc3cc(C#N)cnn23)ncc1C(=O)NCCc1ccc(S(N)(=O)=O)cc1",
    "pEC50": 7.16
  },
  {
    "MOLECULE": "CC(C)(O)[C@H](F)CNC(=O)c1cnc(-c2ccc3cc(C#N)cnn23)cc1Nc1ccc2oc(=O)[nH]c2c1",
    "pEC50": 6.67
  },
  {
    "MOLECULE": "CC(C)(O)[C@H](F)CNC(=O)c1cnc(-c2ccc3cc(C#N)cnn23)cc1NC1CC1CO (single isomer, unassigned) [Example 302]",
    "pEC50": 7.21
  },
  {
    "MOLECULE": "CC(C)(O)[C@H](F)CNC(=O)c1cnc(-c2ccc3cc(C#N)cnn23)cc1NC1C2CCC1CNC2 (single isomer, unassigned)",
    "pEC50": 6.76
  },
  {
    "MOLECULE": "CCC(=O)NCc1ccc(Nc2cc(-c3ccc4cc(C#N)cnn34)ncc2C(=O)NC[C@@H](F)C(C)(C)O)cc1",
    "pEC50": 7.57
  },
  {
    "MOLECULE": "CC(C)(O)[C@H](F)CNC(=O)c1cnc(-c2ccc3cc(C#N)cnn23)cc1Nc1ccc(-n2nccn2)nc1",
    "pEC50": 7.29
  }
]
